molecular target: recombinant selenocysteine-containing rat TrxR1 (rat) (UniProt O89049)
Sequence (O89049 whole entry): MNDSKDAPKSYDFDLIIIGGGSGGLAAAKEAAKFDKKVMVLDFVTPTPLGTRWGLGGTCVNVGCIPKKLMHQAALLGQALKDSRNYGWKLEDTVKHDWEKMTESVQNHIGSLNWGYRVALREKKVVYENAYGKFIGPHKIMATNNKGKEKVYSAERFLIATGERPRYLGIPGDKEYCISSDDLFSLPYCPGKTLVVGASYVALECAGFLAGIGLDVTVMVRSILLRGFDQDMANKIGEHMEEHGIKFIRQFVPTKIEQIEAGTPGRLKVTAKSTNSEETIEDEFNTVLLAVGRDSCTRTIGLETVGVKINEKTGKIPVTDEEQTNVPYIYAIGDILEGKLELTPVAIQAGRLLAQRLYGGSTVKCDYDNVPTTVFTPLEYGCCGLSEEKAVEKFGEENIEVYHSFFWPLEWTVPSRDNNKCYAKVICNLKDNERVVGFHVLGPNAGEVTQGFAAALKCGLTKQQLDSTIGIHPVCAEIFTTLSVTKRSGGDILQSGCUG
Measured metric: KM of TrxR1 for the Trx1 variant, insulin reduction-coupled assay (µM)

Below, each entry is followed by its recorded KM of TrxR1 for the Trx1 variant, insulin reduction-coupled assay result.
human Trx1 K36E (natural protein) MVKQIESKTAFQEALDAAGDKLVVVDFSATWCGPCEMIKPFFHSLSEKYSNVIFLEVDVDDCQDVASECEVKCMPTFQFFKKGQKVGEFSGANKEKLEATINELV : 9.82
human Trx1 S67H (natural protein) MVKQIESKTAFQEALDAAGDKLVVVDFSATWCGPCKMIKPFFHSLSEKYSNVIFLEVDVDDCQDVAHECEVKCMPTFQFFKKGQKVGEFSGANKEKLEATINELV : 1.36
human Trx1 Q63R (natural protein) MVKQIESKTAFQEALDAAGDKLVVVDFSATWCGPCKMIKPFFHSLSEKYSNVIFLEVDVDDCRDVASECEVKCMPTFQFFKKGQKVGEFSGANKEKLEATINELV : 6.37

[I] human Trx1 Q63R,K94E (natural protein) MVKQIESKTAFQEALDAAGDKLVVVDFSATWCGPCKMIKPFFHSLSEKYSNVIFLEVDVDDCRDVASECEVKCMPTFQFFKKGQKVGEFSGANEEKLEATINELV
[II] human Trx1 K72E (natural protein) MVKQIESKTAFQEALDAAGDKLVVVDFSATWCGPCKMIKPFFHSLSEKYSNVIFLEVDVDDCQDVASECEVECMPTFQFFKKGQKVGEFSGANKEKLEATINELV
[III] human Trx1 D60N (natural protein) MVKQIESKTAFQEALDAAGDKLVVVDFSATWCGPCKMIKPFFHSLSEKYSNVIFLEVDVNDCQDVASECEVKCMPTFQFFKKGQKVGEFSGANKEKLEATINELV
[IV] human Trx1 C73H (natural protein) MVKQIESKTAFQEALDAAGDKLVVVDFSATWCGPCKMIKPFFHSLSEKYSNVIFLEVDVDDCQDVASECEVKHMPTFQFFKKGQKVGEFSGANKEKLEATINELV
INPUT: Order field: KM of TrxR1 for the Trx1 variant, insulin reduction-coupled assay | Direction: descending (largest first) Thanks in advance for listing the labels in the requested order.
OUTPUT: I, III, II, IV
(I: 7.09 µM, III: 3.26 µM, II: 2.22 µM, IV: 1.24 µM)

Data origin: paper PMC8189816
